Reported values of phosphorylation enrichment for individual entries
target: MERTK (UniProt Q12866); experiment: phosphorylation enrichment, bacterial display (enrichment ratio); higher = better substrate or ligand; peptides without Tyr show the background;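 also: 11-residue human phosphosite peptides and single-mutation variants displayed on the E. coli surface, counted by deep sequencing, each peptide's frequency after selection divided by its frequency in the unselected input library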;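 also: frequency after pTyr selection over input frequency; kinase dosed for 20-30% of maximal phosphorylation in three min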
Sequence (Q12866 whole entry, looked up): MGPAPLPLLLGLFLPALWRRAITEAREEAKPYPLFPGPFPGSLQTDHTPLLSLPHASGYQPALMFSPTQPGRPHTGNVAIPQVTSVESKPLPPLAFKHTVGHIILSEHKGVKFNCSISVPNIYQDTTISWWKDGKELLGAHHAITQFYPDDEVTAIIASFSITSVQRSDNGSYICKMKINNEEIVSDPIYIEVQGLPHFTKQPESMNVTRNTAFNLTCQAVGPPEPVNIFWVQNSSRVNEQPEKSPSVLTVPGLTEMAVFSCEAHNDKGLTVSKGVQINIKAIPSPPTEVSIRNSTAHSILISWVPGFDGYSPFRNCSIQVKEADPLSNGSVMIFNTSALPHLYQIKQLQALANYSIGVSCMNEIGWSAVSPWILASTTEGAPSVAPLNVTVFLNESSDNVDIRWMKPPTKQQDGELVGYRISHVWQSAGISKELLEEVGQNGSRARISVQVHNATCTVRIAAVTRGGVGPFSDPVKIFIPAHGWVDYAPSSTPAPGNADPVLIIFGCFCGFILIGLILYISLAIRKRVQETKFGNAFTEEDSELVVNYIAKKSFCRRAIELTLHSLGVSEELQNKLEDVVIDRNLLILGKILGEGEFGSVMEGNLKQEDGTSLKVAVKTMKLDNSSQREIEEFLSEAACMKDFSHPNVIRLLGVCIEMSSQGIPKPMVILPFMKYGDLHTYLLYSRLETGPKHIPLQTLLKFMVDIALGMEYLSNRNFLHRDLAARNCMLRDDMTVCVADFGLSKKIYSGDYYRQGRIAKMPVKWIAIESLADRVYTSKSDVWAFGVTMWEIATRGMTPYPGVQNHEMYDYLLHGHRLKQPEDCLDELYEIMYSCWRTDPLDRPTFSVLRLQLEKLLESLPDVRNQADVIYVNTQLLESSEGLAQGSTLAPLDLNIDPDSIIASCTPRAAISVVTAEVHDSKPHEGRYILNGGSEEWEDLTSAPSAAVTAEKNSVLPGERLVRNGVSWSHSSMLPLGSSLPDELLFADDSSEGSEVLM
Please state the value as a number alone, without comment.

Would you please look over these solved cases?
| SEQUENCE_CODE | MEASUREMENT_TARGET | phosphorylation enrichment |
| --- | --- | --- |
| WIPNQYPIISE [NOG_Y222_I220N] | MERTK (UniProt Q12866) | 0.342 |
| KLADIYQAELR [GFAP_Y116_V115I] | MERTK (UniProt Q12866) | 0.709 |

For this sequence ( NKVKFYIPFMN [NCR1_Y84_D87Y_YF] ), measured phosphorylation enrichment is 0.482

For this sequence ( QDGFSYLSRQM [LDLR_Y847_P848L_YF] ), measured phosphorylation enrichment is 0.413

For this sequence ( AVLALHNSTRD [TGFB1_Y81_Y81H] ), measured phosphorylation enrichment is 0.398

For this sequence ( SSQHRYSTPHT [RAF1_Y232_A237T] ), measured phosphorylation enrichment is 0.405

For this sequence ( MSSLYYANALF [HOXB7_Y6_T9A] ), measured phosphorylation enrichment is 10.7
